Reference source for all entries: ChEMBL document CHEMBL1147596

# test-system: Glutamate NMDA receptor; Grin1/Grin2b (Rattus norvegicus, UniProt P35439+Q00960)
# Sequence (Q00960 whole entry, other chains not shown): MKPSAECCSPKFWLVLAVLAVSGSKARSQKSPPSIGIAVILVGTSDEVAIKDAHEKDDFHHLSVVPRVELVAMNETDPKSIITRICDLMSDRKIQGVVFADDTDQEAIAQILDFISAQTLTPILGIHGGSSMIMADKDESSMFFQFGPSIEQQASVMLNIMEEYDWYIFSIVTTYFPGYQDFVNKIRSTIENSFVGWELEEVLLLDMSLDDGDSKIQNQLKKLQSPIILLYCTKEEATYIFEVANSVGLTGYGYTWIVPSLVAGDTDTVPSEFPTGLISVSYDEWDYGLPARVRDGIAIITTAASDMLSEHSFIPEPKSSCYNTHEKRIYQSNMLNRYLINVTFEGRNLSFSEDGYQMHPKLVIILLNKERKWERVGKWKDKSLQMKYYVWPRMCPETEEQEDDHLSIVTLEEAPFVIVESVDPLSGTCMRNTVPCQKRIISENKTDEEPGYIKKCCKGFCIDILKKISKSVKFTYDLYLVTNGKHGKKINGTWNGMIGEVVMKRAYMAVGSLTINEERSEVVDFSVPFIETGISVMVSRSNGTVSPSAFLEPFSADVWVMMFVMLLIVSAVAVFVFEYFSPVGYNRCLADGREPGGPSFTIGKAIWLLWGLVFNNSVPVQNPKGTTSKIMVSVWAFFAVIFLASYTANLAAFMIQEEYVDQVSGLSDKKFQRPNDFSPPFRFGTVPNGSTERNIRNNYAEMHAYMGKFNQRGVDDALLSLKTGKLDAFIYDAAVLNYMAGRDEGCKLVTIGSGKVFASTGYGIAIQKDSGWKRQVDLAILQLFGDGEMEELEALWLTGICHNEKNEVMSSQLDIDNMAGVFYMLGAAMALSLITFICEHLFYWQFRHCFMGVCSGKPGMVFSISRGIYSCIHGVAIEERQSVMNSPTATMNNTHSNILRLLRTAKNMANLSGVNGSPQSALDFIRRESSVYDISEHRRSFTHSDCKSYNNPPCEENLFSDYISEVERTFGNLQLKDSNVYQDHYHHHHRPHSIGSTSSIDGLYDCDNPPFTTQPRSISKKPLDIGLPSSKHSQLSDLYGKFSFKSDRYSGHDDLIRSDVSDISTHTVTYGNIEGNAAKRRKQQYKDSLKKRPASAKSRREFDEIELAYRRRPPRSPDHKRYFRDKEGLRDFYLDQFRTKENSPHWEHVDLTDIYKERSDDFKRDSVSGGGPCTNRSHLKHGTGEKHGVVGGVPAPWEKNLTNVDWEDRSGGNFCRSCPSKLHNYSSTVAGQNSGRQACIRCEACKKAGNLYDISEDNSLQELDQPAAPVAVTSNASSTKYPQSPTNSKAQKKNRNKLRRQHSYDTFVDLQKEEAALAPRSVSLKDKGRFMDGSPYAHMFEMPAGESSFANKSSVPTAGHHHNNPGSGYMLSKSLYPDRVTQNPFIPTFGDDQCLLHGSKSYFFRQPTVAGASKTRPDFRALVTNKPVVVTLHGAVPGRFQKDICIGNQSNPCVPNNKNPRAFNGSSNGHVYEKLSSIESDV
# assay-procedure: Binding affinity against NR1A/2B receptor in rat brains by [3H]ifenprodil displacement.
Exercise: state measured IC50 for each of the compounds provided.
Answers are plain numbers, in nM.

Worked set:
compound: O=c1[nH]c2cccc(C#CCN3CCC(Cc4ccc(F)cc4)CC3)c2[nH]1
test-system: Glutamate NMDA receptor; Grin1/Grin2b (Rattus norvegicus, UniProt P35439+Q00960)
unit-string: nM
IC50: 284

compound: O=c1[nH]c2cc(C#CCN3CCC(Cc4ccc(F)cc4)CC3)cnc2[nH]1
test-system: Glutamate NMDA receptor; Grin1/Grin2b (Rattus norvegicus, UniProt P35439+Q00960)
unit-string: nM
IC50: 2

Parameters: items (list). Returns: IC50 for each item.
1. CC(C#Cc1ccc2[nH]c(=O)[nH]c2c1)N1CCC(Cc2ccc(F)cc2)CC1 (stereo not given)
2. CC1CC(Cc2ccc(F)cc2)CC(C)N1CC#Cc1ccc2[nH]c(=O)[nH]c2c1 (stereo not given)
3. O=C1Cc2cc(C#CCN3CCC(Cc4ccc(F)cc4)CC3)ccc2N1
4. Oc1nc2cc(C#CCN3CCC(O)(Cc4ccc(F)cc4)CC3)ccc2[nH]1

Completion:
1: 100; 2: 157; 3: 56; 4: 21

###

Could you please report measured IC50 for the items listed next?
# test-system: Glutamate NMDA receptor; Grin1/Grin2b (Rattus norvegicus, UniProt P35439+Q00960)
# assay-procedure: Binding affinity against NR1A/2B receptor in rat brains by [3H]ifenprodil displacement.
Give bare numbers, in nM.

Please give IC50 for each item listed below.
1. Cc1cc(C#CCN2CCC(Cc3ccc(F)cc3)CC2)cc2[nH]c(=O)[nH]c12
2. Fc1ccc(CC2CCN(CC#Cc3ccc4[nH]c(=S)[nH]c4c3)CC2)cc1
3. COc1cc2[nH]c(=O)[nH]c2cc1C#CCN1CCC(Cc2ccc(F)cc2)CC1
4. CC1CC(Cc2ccc(F)cc2)CCN1CC#Cc1ccc2[nH]c(=O)[nH]c2c1 (centres undefined)

Completion:
20
19
9
104

// batch mode: one IC50 value per listed entry
1. O=c1[nH]c2ccc(C#CCN3CCC(=Cc4ccc(F)cc4)CC3)cc2[nH]1
2. Oc1nc2ccc(C#CCN3CCC(O)(Cc4ccc(F)cc4)CC3)cc2s1

Completion:
1: 142; 2: 24

Can you give me IC50 for all of these, one by one?
1. Oc1nc2cc(C#CCN3CCC(Cc4cccc(F)c4)CC3)ccc2[nH]1
2. Cc1cc2[nH]c(=O)[nH]c2cc1C#CCN1CCC(Cc2ccc(F)cc2)CC1

Completion:
1: 14; 2: 4
